activity at 10 µM: recorded values
System: neurons from hippocampi of E18 rat embryos
Assay: Neurite growth length (% NTL) in cultured E18 rat hippocampal neurons, 9-point dose response, 48 hours
Assay type: cell-based
Details: Rattus norvegicus, Neuron, 48 h, 10 μM
Protocol: PRE-COATING CULTURE PLATES: On the day before the experiment, 96-well plates were pre-coated by plating 50 μl of Poly-D-lysine solution (PDL, 0.5 mg/mL) in each well. […] The final rinse media was removed from the tube and 1 pipette-full (1-2 mL) of Hibernate E with SM1 was added. […] The volume was adjusted to 8-12 mL using Hibernate E containing SM1, the well was mixed and cell concentration was determined. […]
Give just the number in %; leave the unit off.

Study these solved cases before continuing.
| Compound | activity at 10 µM (%) |
| --- | --- |
| COc1ccc(OC)c(C(=O)c2ccc(C(=O)N[C@@H]3c4ccccc4C[C@H]3NC(=O)c3ccncc3)cc2)c1F [Example A12] | 98.6 |
| Nc1nccc(C(=O)N[C@@H]2CNC[C@H]2NC(=O)c2ccc(C(=O)c3c(O)cccc3F)cc2)n1 [Example A50] | 561 |
| COc1ccc(O)c(C(=O)c2ccc(C(=O)N[C@@H]3CNC[C@H]3NC(=O)c3ccncn3)cc2)c1F [Example A41] | 152 |

Query: Request body: readout activity at 10 µM, system neurons from hippocampi of E18 rat embryos, query COc1ccc(OC)c(C(=O)c2ccc(C(=O)O[C@@H]3CCN(C)C[C@H]3NC(=O)c3ccncc3)cc2)c1F [Example A30] . Return the value.
Result: 107

Query: Repeat with COc1ccc(O)c(C(=O)c2ccc(C(=O)O[C@@H]3CCNC[C@H]3NC(=O)c3ccncc3)cc2)c1F [Example A31]
Result: 142

Query: Repeat with Cc1ccc(C(=O)c2ccc(C(=O)N[C@@H]3CNC[C@H]3NC(=O)c3ccnc(N)n3)cc2)c(O)c1 [Example A80]
Result: 160

Query: Repeat with O=C(N[C@@H]1CNC[C@H]1NC(=O)c1ccc(C(=O)c2ccccc2O)cc1Cl)c1ccncc1 [Example A65]
Result: 150

###

Tested on: Primary Neurons
Test: HCS neurite outgrowth assay (High Content Screening with Primary Neurons)
Assay type: cell-based
Details: Primary neuron
Assay Readout: EC50 (µM)
Give just the number in µM; leave the unit off.

Study these solved cases before continuing.
| Compound | Unit Annotation | EC50 |
| --- | --- | --- |
| Cc1cccc(C(=O)c2ccc(C(=O)N[C@@H]3CNC[C@H]3NC(=O)c3ccnc(N)n3)cc2)c1O [Example A74] | µM | 4.5 |
| O=C(N[C@@H]1CNC[C@H]1NC(=O)c1ccc(C(=O)c2ccccc2)cc1)c1ccncc1 (stereo in doubt) [Example A13] | µM | 4.96 |
| COc1ccc(O)c(C(=O)c2ccc(C(=O)N[C@@H]3CNC[C@H]3NC(=O)c3ccnc4[nH]cnc34)cc2)c1F [Example A48] | µM | 6.08 |
| O=C(N[C@@H]1CNC[C@H]1NC(=O)c1ccc(C(=O)c2cc(F)ccc2O)cc1)c1ccncc1 [Example A91] | µM | 3.41 |

Query: Would you mind telling me what EC50 value was observed for COc1ccc(O)c(C(=O)c2ccc(C(=O)Nc3ccncc3NC(=O)c3ccncc3)cc2)c1F [Example A2] ?
Result: 1.81

Query: Repeat with Cc1ccc(C(=O)c2ccc(C(=O)N[C@@H]3CNC[C@H]3NC(=O)c3ccnc(N)n3)cc2)c(O)c1 [Example A80]
Result: 0.534

Query: Repeat with COc1ccc(C(=O)c2ccc(C(=O)N[C@@H]3CNC[C@H]3NC(=O)c3ccnc(N)n3)cc2)c(O)c1 [Example A82]
Result: 0.154

Query: Repeat with O=C(c1ccccc1)c1ccc(C(=O)N2CCN(C(=O)c3ccncc3)CC2)cc1 [Example A7]
Result: 1.67

Query: Repeat with COc1ccc(O)c(C(=O)c2ccc(C(=O)N[C@@H]3CNC[C@H]3NC(=O)c3ccncn3)cc2)c1F [Example A41]
Result: 11

Query: Repeat with COc1ccc(O)c(C(=O)c2ccc(C(=O)N[C@@H]3CNC[C@H]3NC(=O)Cc3cccnc3)cc2)c1F [Example A46]
Result: 1.65

###

Tested on: Primary Neurons
Assay: HCS neurite outgrowth assay (High Content Screening with Primary Neurons)
Assay type: cell-based
Conditions: Primary neuron
pEC50: −log10 of the molar value.
pEC50: recorded values

Study these solved cases before continuing.
| Line Notation | pEC50 |
| --- | --- |
| COc1ccc(OC)c(C(=O)c2ccc(C(=O)NCCNC(=O)c3ccncc3)cc2)c1F | < 4.70 |
| COc1ccc(OC)c(C(=O)c2ccc(C(=O)N[C@@H]3c4ccccc4C[C@H]3NC(=O)c3ccncc3)cc2)c1F | < 4.70 |

API: the following record is the query input.
Query: Would you mind telling me what pEC50 value was observed for O=C(N[C@@H]1CNC[C@H]1NC(=O)c1ccc(C(=O)c2ccccc2O)c(Cl)c1)c1ccncc1 ?
Result: < 4.70

###

activity at 10 µM: recorded values
Tested on: neurons from hippocampi of E18 rat embryos
Assay: Neurite growth length (% NTL) in cultured E18 rat hippocampal neurons, 9-point dose response, 48 hours
Format: cell-based
Conditions: Rattus norvegicus, Neuron, 48 h, 10 μM
Give just the number in %; leave the unit off.

| Compound | Recorded Value |
| --- | --- |
| O=C(N[C@@H]1CNC[C@H]1NC(=O)c1ccc(C(=O)c2ccccc2O)cc1)c1ccncc1 | 271 |
| COc1ccc(O)c(C(=O)c2ccc(C(=O)Nc3ccccc3NC(=O)c3ccncc3)cc2)c1F | 124 |
| O=C(c1ccccc1)c1ccc(C(=O)N2CCN(C(=O)c3ccncc3)CC2)cc1 | 86.4 |

Query: Would you mind telling me what activity at 10 µM value was observed for COc1ccc(O)c(C(=O)c2ccc(C(=O)N[C@@H]3CNC[C@H]3NC(=O)Cc3cn[nH]c3)cc2)c1F ?
Result: 128

Query: Repeat with COc1ccc(OC)c(C(=O)c2ccc(C(=O)Nc3ccncc3NC(=O)c3ccncc3)cc2)c1F
Result: 87

Query: Repeat with COc1cc(C(=O)c2ccccc2O)ccc1C(=O)N[C@@H]1CNC[C@H]1NC(=O)c1ccncc1
Result: 119

Query: Repeat with COc1ccc(O)c(C(O)c2ccc(C(=O)N[C@@H]3CNC[C@H]3NC(=O)c3ccncc3)cc2)c1F (some centres unmarked)
Result: 111

Query: Repeat with O=C(N[C@@H]1CNC[C@H]1NC(=O)c1ccc(C(=O)c2cccc(Cl)c2O)cc1)c1ccncc1
Result: 117

###

Tested on: neurons from hippocampi of E18 rat embryos
Assay: Neurite growth length (% NTL) in cultured E18 rat hippocampal neurons, 9-point dose response, 48 hours
Format: cell-based
Conditions: Rattus norvegicus, Neuron, 48 h, 10 μM
activity at 10 µM: recorded values
Give just the number in %; leave the unit off.

| Compound | Study System | Recorded Value |
| --- | --- | --- |
| COc1ccc(O)c(C(=O)c2ccc(C(=O)N[C@@H]3CCCCC[C@H]3NC(=O)c3ccncc3)cc2)c1F [Example A25] | neurons from hippocampi of E18 rat embryos | 146 |
| COc1ccc(OC)c(C(=O)c2ccc(C(=O)N[C@@H]3CN(C)C[C@H]3NC(=O)c3ccncc3)cc2)c1F [Example A33] | neurons from hippocampi of E18 rat embryos | 159 |
| O=C(Nc1ccccc1NC(=O)c1ccc(C(=O)c2ccccc2)cc1)c1ccncc1 [Example A6] | neurons from hippocampi of E18 rat embryos | 107 |

Query: Would you mind telling me what activity at 10 µM value was observed for Cc1cccc(C(=O)c2ccc(C(=O)N[C@@H]3CNC[C@H]3NC(=O)c3ccncc3)cc2)c1O [Example A75] ?
Result: 146

Query: Repeat with COc1ccc(OC)c(C(=O)c2ccc(C(=O)Nc3ccccc3NC(=O)c3ccncc3)cc2)c1F [Example A4]
Result: 132

Query: Repeat with Nc1nccc(C(=O)N[C@@H]2CNC[C@H]2NC(=O)c2ccc(C(=O)c3cc(Cl)ccc3O)cc2)n1 [Example A84]
Result: 492

Query: Repeat with O=C(N[C@@H]1CCCCC[C@H]1NC(=O)c1ccc(C(=O)c2ccccc2)cc1)c1ccncc1 [Example A23]
Result: 117

Query: Repeat with COc1ccc(O)c(C(=O)c2ccc(C(=O)N[C@@H]3CCCC[C@H]3NC(=O)c3ccncc3)cc2)c1F [Example A22]
Result: 91.1

###

pEC50: recorded values
System: Primary Neurons
Test: HCS neurite outgrowth assay (High Content Screening with Primary Neurons)
Format: cell-based
Details: Primary neuron
Scale note: pEC50 = -log10(concentration in M).

| Line Notation | Assay Readout | Recorded Value |
| --- | --- | --- |
| COc1ccc(OC)c(C(=O)c2ccc(C(=O)Nc3ccccc3NC(=O)c3ccncc3)cc2)c1F | pEC50 | 5.02 |
| O=C(Nc1ccncc1NC(=O)c1ccncc1)c1ccc(C(=O)c2ccccc2)cc1 | pEC50 | 6.10 |
| COc1ccc(C(=O)c2ccc(C(=O)N[C@@H]3CNC[C@H]3NC(=O)c3ccncc3)cc2)c(O)c1 | pEC50 | 6.31 |
| Nc1nccc(C(=O)N[C@@H]2CNC[C@H]2NC(=O)c2ccc(C(=O)c3ccccc3O)c(Cl)c2)n1 | pEC50 | 5.63 |
| COc1ccc(O)c(C(=O)c2ccc(C(=O)N[C@@H]3CNC[C@H]3NC(=O)c3ccc4[nH]ncc4c3)cc2)c1F | pEC50 | 5.61 |

Query: Would you mind telling me what pEC50 value was observed for Cc1cccc(C(=O)c2ccc(C(=O)N[C@@H]3CNC[C@H]3NC(=O)c3ccncc3)cc2)c1O ?
Result: 5.18

Query: Repeat with O=C(N[C@@H]1CCCC[C@H]1NC(=O)c1ccc(C(=O)c2ccccc2)cc1)c1ccncc1
Result: 5.65

Query: Repeat with COc1ccc(O)c(C(=O)c2ccc(C(=O)N[C@@H]3CNC[C@H]3NC(=O)c3ccc4c(c3)CC(=O)N4)cc2)c1F
Result: 6.79

Query: Repeat with O=C(N[C@@H]1CNC[C@H]1NC(=O)c1ccc(C(=O)c2cc(Br)ccc2O)cc1)c1ccncc1
Result: 5.93

Query: Repeat with Nc1nccc(C(=O)N[C@@H]2CNC[C@H]2NC(=O)c2ccc(C(=O)c3cc(Cl)ccc3O)cc2)n1
Result: 5.16

Query: Repeat with O=C(N[C@@H]1CNC[C@H]1NC(=O)c1ccc(C(=O)c2ccccc2O)cc1)c1ccncc1
Result: 4.92

Query: Repeat with COc1ccc(O)c(C(=O)c2ccc(C(=O)N[C@@H]3CNC[C@H]3NC(=O)c3ccnc4[nH]ccc34)cc2)c1F
Result: 5.07
